Across several publications, the following pKi results were reported for Cannabinoid receptor 2 (Homo sapiens).
pKi: −log10 of the molar value.

structureSmiles	pKi
COc1ccc(C(NC(=O)Cc2ccc(C(F)(F)F)cc2)NC(=O)Cc2ccc(C(F)(F)F)cc2)cc1	< 4.70
Cc1cc(C(=O)O)c(C)n1-c1ccccc1	< 5.00
O=C(CCC/C=C\C[C@H]1C(=O)C[C@@H](O)[C@@H]1/C=C/[C@H](O)CCc1ccccc1)NCCO	< 6.00

Switching to the query record.
Entry Cc1nc2c(-c3ccc(Cl)cc3)n(-c3ccccc3Cl)nc2c(=O)n1CC(F)(F)F ; assay system Cannabinoid receptor 2 (Homo sapiens); pKi recorded at < 5.00
